- TESTED_TARGET: S#104: VL-L1-VH CAR-T
- ASSAY_REMARKS: flow cytometry on CAR-T cells; PE-labeled secondary antibody; PE-positive cells / total cells
Catalogue of Reactivity (%) values
Please reply with the bare figure in % and do not write the unit itself.

Q) Quick one: Reactivity (%) of 2D12-B12 (antibody, V domains shown) VH: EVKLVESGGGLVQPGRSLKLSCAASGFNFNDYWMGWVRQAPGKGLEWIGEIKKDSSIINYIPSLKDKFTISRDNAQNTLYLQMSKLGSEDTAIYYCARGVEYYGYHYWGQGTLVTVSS VL: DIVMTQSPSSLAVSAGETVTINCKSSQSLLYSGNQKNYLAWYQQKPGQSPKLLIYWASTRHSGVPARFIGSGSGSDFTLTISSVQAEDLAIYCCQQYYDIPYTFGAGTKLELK ?
A) 13.4

Q) Please look up its Reactivity (%): 3E7-C1 (antibody, V domains shown) VH: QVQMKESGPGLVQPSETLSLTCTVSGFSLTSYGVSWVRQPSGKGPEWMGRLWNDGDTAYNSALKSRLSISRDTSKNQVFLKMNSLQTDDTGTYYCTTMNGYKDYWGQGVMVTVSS VL: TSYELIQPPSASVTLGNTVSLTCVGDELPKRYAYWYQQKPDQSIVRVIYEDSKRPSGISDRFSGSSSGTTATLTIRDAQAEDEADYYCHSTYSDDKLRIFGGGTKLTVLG
A) 21.5

Q) # query: Reactivity (%) of entry 4B9-B11 (antibody, V domains shown) VH: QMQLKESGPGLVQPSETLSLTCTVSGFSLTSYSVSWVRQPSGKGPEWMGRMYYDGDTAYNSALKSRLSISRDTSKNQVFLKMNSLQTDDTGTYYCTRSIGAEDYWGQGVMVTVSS VL: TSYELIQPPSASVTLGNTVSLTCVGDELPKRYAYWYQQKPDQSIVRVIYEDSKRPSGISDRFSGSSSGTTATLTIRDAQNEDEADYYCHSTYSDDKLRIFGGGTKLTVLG
A) 29.1

Q) Field request: Reactivity (%) | item: 3A4-A10-7 (antibody, V domains shown) VH: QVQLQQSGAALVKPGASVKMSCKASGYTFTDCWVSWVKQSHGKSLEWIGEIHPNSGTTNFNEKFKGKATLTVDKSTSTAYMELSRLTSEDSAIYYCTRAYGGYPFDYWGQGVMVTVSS VL: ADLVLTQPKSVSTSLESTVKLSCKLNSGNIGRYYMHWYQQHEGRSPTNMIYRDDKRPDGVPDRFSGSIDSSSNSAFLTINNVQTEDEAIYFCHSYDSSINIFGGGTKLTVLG
A) 5.2

Provenance of the data: patent US20240400718A1
